ASSAY_TARGET: α1 -ADRENOCEPTOR
ASSAY_INFO: α1-adrenoceptor binding ([3H]-prazosin)
Set-up: species or system guinea-pig
EXPERIMENTAL_SETUP: read-out: potency for α1-adrenoceptor
Structures can show the parent of a compound that is named as a salt.
VALUE_KIND: IC50

Read off the recorded IC50 for O=C(OCCN1CCOCC1)C1(c2ccccc2)CCCCC1 [Compound 12, hydrochloride]
> 100 µM

----------
ASSAY_TARGET: 5-HT2 (Cavia porcellus, UniProt A0A286Y537)
Sequence (A0A286Y537 1-470): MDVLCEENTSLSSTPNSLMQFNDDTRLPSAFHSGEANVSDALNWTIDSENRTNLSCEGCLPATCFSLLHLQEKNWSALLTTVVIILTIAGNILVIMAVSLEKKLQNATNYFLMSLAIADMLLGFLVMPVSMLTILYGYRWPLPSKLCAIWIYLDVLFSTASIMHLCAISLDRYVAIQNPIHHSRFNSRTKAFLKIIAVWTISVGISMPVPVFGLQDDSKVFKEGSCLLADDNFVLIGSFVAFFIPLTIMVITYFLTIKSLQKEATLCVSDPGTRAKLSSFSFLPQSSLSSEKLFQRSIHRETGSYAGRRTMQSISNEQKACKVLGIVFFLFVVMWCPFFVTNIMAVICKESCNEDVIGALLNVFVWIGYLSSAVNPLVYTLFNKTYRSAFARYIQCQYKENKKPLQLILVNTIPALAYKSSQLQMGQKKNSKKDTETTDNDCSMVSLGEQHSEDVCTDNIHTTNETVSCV
ASSAY_INFO: 5-HT2 receptor binding
Parameters: species or system guinea-pig
EXPERIMENTAL_SETUP: Table 4; IC50 and nM only stated in text; read-out: 5-HT2
Structures can show the parent of a compound that is named as a salt.
I'd appreciate it if you could supply IC50 values for the items below.
One number for each entry, in nM.

Study these solved cases before continuing.
>  <MOLECULE>
O=C(OCCN1CCCC1)C1(c2ccccc2)CCCCC1 [Compound 8, hydrochloride]

>  <UNIT_NAME>
nM

>  <IC50>
2930

$$$$
>  <MOLECULE>
O=C(OCCN1CCOCC1)C1(c2ccccc2)CCCCC1 [Compound 12, hydrochloride]

>  <UNIT_NAME>
nM

>  <IC50>
18700

$$$$
>  <MOLECULE>
CN(C)CCOC(=O)C1(c2ccccc2)CCCCC1.Cl [Compound 19, hydrochloride]

>  <UNIT_NAME>
nM

>  <IC50>
1410

$$$$
>  <MOLECULE>
CCN(CC)CCOC(=O)C1(c2ccccc2)CCCCC1.Cl [Compound 15, hydrochloride]

>  <UNIT_NAME>
nM

>  <IC50>
2180

$$$$

Okay, next one:
Read off the recorded IC50 for O=C(OCCN1CCCCC1)C1(c2ccccc2)CCCCC1 [Compound 3, hydrochloride]
3660

Where do these numbers come from? They come from patent US5086054A.
